Test system: Plasmodium falciparum
Test: GSK_TCMDC: Inhibition of Plasmodium falciparum Dd2 in whole red blood cells, using parasite LDH activity as an index of growth. Test compounds present at 2uM
Type: functional
endpoint: Inhibition (%)
Number only, in %; omit the unit.

O=C(Nc1cccc(C(F)(F)F)c1)N1CCOC(CCN2CCC3(CCc4ccccc43)CC2)(c2ccc(Cl)c(Cl)c2)C1 (stereo unspecified) ... 70
CC1(C)CC(=O)c2c(O)cc(OCc3ccncc3)cc2O1.Cl ... 47

Attention now shifts to the item below.
Sample CC(C)(C)Nc1nc(Nc2cccc([N+](=O)[O-])c2)nc(-n2ccnc2)n1 ; Inhibition observed: 41

====

System: Plasmodium falciparum
Experiment: GSK_TCMDC: Inhibition of Plasmodium falciparum Dd2 in whole red blood cells, using parasite LDH activity as an index of growth. Test compounds present at 2uM
Type: functional
Entries whose Inhibition is below 30% take Condition met; entries at or above 30% take Condition not met.

Answered cases to consult:
CCOC(=O)C1=C(C)NC(Cn2ccnc2)=C(C(=O)OCC)C1c1ccc(C(C)(C)C)cc1.Cl (stereo not drawn) ... Condition not met
O=C(Cc1ccccc1)NC(CCN1CCC(N(C2CC2)S(=O)(=O)c2cccc(C(F)(F)F)c2)CC1)c1ccc(Cl)c(Cl)c1 (stereo not drawn) ... Condition met
O=C(NCCc1ccccc1)N(Cc1ccccc1-c1ccc(CNCCc2ccccc2)cc1)C1CCN(Cc2ccccc2)CC1.O=C(O)C(F)(F)F ... Condition not met

// query Answer whether the compound COc1cc(NC(=O)c2cc3c(C)nn(-c4cccc(C(F)(F)F)c4)c3s2)cc(OC)c1OC has Inhibition strictly less than 30%
// result Condition not met

// query Quick check: Inhibition of Oc1ccc2[nH]cc(C3CCN(CCC(c4ccccc4)c4ccccc4)CC3)c2c1 under 30%?
// result Condition not met

// query For CC(C)c1ccc2oc(-c3ccc(NC(=O)c4ccc([N+](=O)[O-])o4)cc3)nc2c1 , is the recorded Inhibition below the cut-off of 30%?
// result Condition not met

// query Dear colleague, could you confirm whether Inhibition of O=C(NC1CCN(CCN2CCC(c3cn(CCO)c4ccccc34)CC2)CC1)c1ccc(-c2ccc(C(F)(F)F)cc2)cc1 falls below 30%? Thanks.
// result Condition not met

// query Consider Cc1cc(NC(=O)c2ccc(-c3ccccc3)cc2)no1 . Does its Inhibition lie strictly below 30%?
// result Condition not met

// query # check: Inhibition < 30% for O=c1[nH]c2c(cc1CNC1CCCCC1)c(-c1cccc(F)c1)nn2-c1ccccc1
// result Condition not met

// query Lab note: Inhibition threshold 30%. Does this compound come in strictly under it? COc1ccc(CNc2ncc(-c3ccsc3)c(-c3nccs3)n2)cc1OC
// result Condition not met

// query Take the compound CCCCc1nc2nc(N)nc(N)c2cc1CCC and say whether its Inhibition is less than 30%.
// result Condition met

// query Below 30% on Inhibition? Entry Brc1cc(CNCCCNc2nc3ccccc3[nH]2)sc1Br.Cl
// result Condition met

// query For CCN(C(=O)CSc1cc(C)c2cc(C)cc(C)c2n1)C1CCS(=O)(=O)C1 (stereo not drawn) , is the recorded Inhibition below the cut-off of 30%?
// result Condition not met

====

Reported Inhibition by item:
Tested on: Plasmodium falciparum
Assay: GSK_TCMDC: Inhibition of Plasmodium falciparum Dd2 in whole red blood cells, using parasite LDH activity as an index of growth. Test compounds present at 2uM
Type: functional
Field format: number, assumed %, no unit text.

# annotated cases, reported Inhibition shown
O=C(O)C(F)(F)F.OCC1CCN(Cc2ccc(-c3ccc(-c4nc5cc(C(F)(F)F)ccc5[nH]4)cc3)cc2)CC1 ... 91
CC(C)(C)C/C=C\c1ccc(C(=O)NCC2CC2)cc1 ... 88
CC1CN(Cc2cccc(-c3ccc(-c4nc5cc(F)ccc5[nH]4)cc3)c2)CC(C)O1.O=C(O)C(F)(F)F (centres undefined) ... 88

Next compound, Inhibition to be filled in.
Notebook: O=C(Nc1ccc(N2CCN(Cc3cccc(F)c3)CC2)cc1)c1cccs1.O=C(O)C(F)(F)F , Inhibition read as 92

====

Below: a set of entries, each annotated with reported Inhibition.
Tested on: HepG2
Test: GSK_TCMDC: Percent inhibition of human HepG2 cell line. Test compounds present at 10uM.
Assay type: functional
Value expressed in %; do not type the unit.

Field: example entries. Status: answers known.
COc1cc(Nc2ncnc3cc(OC)c(OC)cc23)cc([N+](=O)[O-])c1.Cl ... 8
Cc1c(NCCCNCc2cc(Cl)cc(Cl)c2Cl)[nH]c2ccccc2c1=O.Cl ... 35

Next, consider the following compound.
Summary for this compound, CCCCCCCC1CC(CC(=O)Nc2ccnc3ccc(OC)cc23)CN1C(=O)OC(C)(C)C (stereo not drawn) : Inhibition is 1

====

Test system: Plasmodium falciparum
Assay: GSK_TCMDC: Inhibition of Plasmodium falciparum Dd2 in whole red blood cells, using parasite LDH activity as an index of growth. Test compounds present at 2uM
Format: functional
endpoint: Inhibition
Show the value, then the unit it is measured in.

// worked examples, Inhibition included
COc1cc(Nc2nccc(N3CCC(NC(=O)c4cc5ccccc5s4)C3)n2)cc(OC)c1OC (stereo not drawn) ... 50%
N#Cc1cccc(C(=O)Nc2cccc(-c3ccc(CN4CCCC4)cc3)c2)c1.O=C(O)C(F)(F)F ... 42%

In plain terms, CC(=NNC(N)=O)C1=C(O)C(c2ccccc2)N(C2CCCCC2)C1=O (stereo not drawn) has a documented Inhibition of 96%

====

System: Plasmodium falciparum
Experiment: GSK_TCMDC: Inhibition of Plasmodium falciparum 3D7 in whole red blood cells, using parasite LDH activity as an index of growth. Test compounds present at 2uM
Format: functional
Collected Inhibition values appear next to each entry.
Report the figure along with its unit, number first.

CC(=O)Nc1ncc(C(=O)Nc2cccc(-c3cccc(-c4nc5cc(C(F)(F)F)ccc5[nH]4)c3)c2)s1 ... 100%
O=C(NCCCCCCNCc1ccc(-c2ccccc2)cc1)Nc1ccc(Cl)c(Cl)c1 ... 90%
CCc1c[nH]c2c(N(c3ccccc3)S(C)(=O)=O)cc(C(=O)N[C@@H](Cc3ccccc3)[C@H](O)CNCc3cccc(C(F)(F)F)c3)cc12.O=CO ... 93%
CCNc1cc(C(=O)N[C@@H](Cc2cccc(Cl)c2)[C@H](O)CNC(C)CCCC(C)C)cc(N2CCCCS2(=O)=O)c1.Cl (some centres not stated) ... 98%
CC(C)Sc1nc2c(c(=O)n1CCc1ccccc1)C1(CCCC1)Cc1ccccc1-2 ... 100%
CC(=O)Oc1c(C2C=CCCC2)c(OC(C)=O)c2ccccc2c1OC(C)=O (configuration not stated) ... 95%

Please look at the following compound next.
Record COc1ccc(Nc2nccc(N3CCC(NC(=O)c4cccc(NC(C)=O)c4)C3)n2)cc1 (configuration not stated) . Reported Inhibition: 92%

====

Test system: Plasmodium falciparum
Assay: GSK_TCMDC: Inhibition of Plasmodium falciparum Dd2 in whole red blood cells, using parasite LDH activity as an index of growth. Test compounds present at 2uM
Assay type: functional
Classify: T when Inhibition is strictly less than 90%; F when Inhibition is not.

// query Determine whether this compound shows Inhibition lower than 90% (ties excluded): CCOc1cc(C(=O)NCCN(CC)c2cccc(C)c2)ccc1-c1nc2cc(Cl)ccc2[nH]1
// result T

// query Field: below-cutoff. Rule: recorded Inhibition strictly less than 90%. Subject: OC(c1ccc2ccccc2c1)C1CN(CCc2ccccc2)CCC1(O)c1ccccc1 (stereo not drawn)
// result F

// query In plain terms, does Cc1cc(N/N=C/c2ccccc2[N+](=O)[O-])c2cccc(C)c2n1 come in under 90% for Inhibition?
// result F

// query Say whether its Inhibition is strictly beneath 90%. Entry: Br.CCc1cccc(OCCCON2C(=N)N=C(N)NC2(C)C)c1
// result F

// query Here's an entry: CCOc1ccc2c(=NN=Cc3cc(OC)c(OC)c(OC)c3)cc(C)[nH]c2c1 . Is its Inhibition below 90%?
// result F

// query Does O=C(O)C(F)(F)F.OC1CCCN(Cc2cccc(-c3ccc(-c4nc5ccccc5[nH]4)cc3)c2)C1 (stereo not drawn) have Inhibition strictly under 90%?
// result T

// query Say whether its Inhibition is strictly beneath 90%. Entry: Cc1cccc(S(=O)(=O)Nc2cccc(CCN3CCC(N4CCCCC4)CC3)c2)c1
// result T

====

Test system: Plasmodium falciparum
Assay: GSK_TCMDC: Inhibition of Plasmodium falciparum Dd2 in whole red blood cells, using parasite LDH activity as an index of growth. Test compounds present at 2uM
Format: functional
endpoint: Inhibition (%)
The response must be a number in % with no trailing unit.

Sample records with Inhibition:
CN(CCCN(C)c1cc(NC(=O)c2ccc(F)cc2)ccn1)Cc1cccc(O)c1.O=C(O)C(F)(F)F ... 0
COc1ccc2nccc([C@@H](O)CN3CCC(NCc4cc5ccc(C#N)cc5[nH]4)CC3)c2c1.O=C(O)C(=O)O ... 39
COc1ccc2nc3cc(Cl)ccc3c(NCCc3ccccc3)c2c1.Cl ... 82
COc1ccc(NC2=C(c3ccccc3)C(=O)c3ccccc32)cn1 ... 84
C(=NN=c1cc[nH]c2ccccc12)c1ccncc1 ... 27
O=C(NCC1CCN(CCN2CCC(c3cn(CCO)c4ccccc34)CC2)CC1)c1ccc(-c2ccc(C(F)(F)F)cc2)cc1 ... 100
CC(=O)Nc1ccc(C(=O)Nc2ccc(-c3cccc(-c4nc5cc(F)ccc5[nH]4)c3)cc2)cn1 ... 84
Cc1cc(N)nc2ccc(-c3ccc(CCN)cc3)cc12 ... 48

API: the following record is the query input.
Please fill in: Inhibition reported for COc1ccccc1C1CCN(CCCCNC(=O)c2ccc(NC(=O)c3ccc(Cl)cc3)cc2)CC1 = 12
